- Tested on: HL-60(TB) leukemia
- ASSAY COMMENT: NCI-60 one-dose screen, 48 h (100 = growth as untreated, 0 = no growth, -100 = all killed)
- CONDITION SET: 10 µM unless noted
Compounds without any hit were thinned out: in the full panel of roughly 83,000, 20% have a hit.
Response field label takes met when growth is strictly below 10% and not met in all other cases.

- COMPOUND: "O=S(=O)(NCCCNc1cc(-c2c(-c3cccc(O)c3)nc3sccn23)ccn1)c1cccc2ccccc12"
  ASSAYED SYSTEM: "HL-60(TB) leukemia"
  ASSIGNED CATEGORY: "not met"
- COMPOUND: "O=C1/C(=C/c2ccccc2)SC(=Nc2ccccc2)N1Nc1ccccc1"
  ASSAYED SYSTEM: "HL-60(TB) leukemia"
  ASSIGNED CATEGORY: "met"
- COMPOUND: "CC/C=C/C/C=C/C/C=C/C/C=C/C/C=C/C/C=C/CCC(=O)Nc1ccn([C@@H]2O[C@H](CO)[C@@H](O)C2(F)F)c(=O)n1"
  ASSAYED SYSTEM: "HL-60(TB) leukemia"
  ASSIGNED CATEGORY: "met"
- COMPOUND: "CCN(C(=O)Nc1cccc2ccccc12)c1ccccc1"
  ASSAYED SYSTEM: "HL-60(TB) leukemia"
  ASSIGNED CATEGORY: "not met"
- COMPOUND: "C/C1=C\\CC[C@@]2(C)O[C@H]2[C@H]2OC(=O)C(CN3CCN(CC4C(=O)O[C@H]5[C@H]4CC/C(C)=C/CC[C@@]4(C)O[C@@H]54)CC3)[C@@H]2CC1 (some centres not stated)"
  ASSAYED SYSTEM: "HL-60(TB) leukemia"
  ASSIGNED CATEGORY: "not met"
- COMPOUND: "CCCCCCCC/C=C\\CCCCCCCCOc1ccc(CC(=O)NCC[N+]2(C)CCOCC2)cc1"
  ASSAYED SYSTEM: "HL-60(TB) leukemia"
  ASSIGNED CATEGORY: "met"
- COMPOUND: "COc1cc(-c2nc3c(c(C)nc4c3nnn4-c3ccccc3)c(=O)o2)cc(OC)c1OC"
  ASSAYED SYSTEM: "HL-60(TB) leukemia"
  ASSIGNED CATEGORY: "not met"
- COMPOUND: "CSc1cccc([N+](=O)[O-])c1"
  ASSAYED SYSTEM: "HL-60(TB) leukemia"
  ASSIGNED CATEGORY: "not met"
- COMPOUND: "CC(C)C1C2=C(NCCN1C(=O)c1ccncc1)C(C)(C)N(Cc1ccccc1)C2=O (configuration not stated)"
  ASSAYED SYSTEM: "HL-60(TB) leukemia"
  ASSIGNED CATEGORY: "not met"
- COMPOUND: "O=c1oc2c(cc1-c1ccc(F)cc1)C(O)Oc1ccccc1-2 (configuration not stated)"
  ASSAYED SYSTEM: "HL-60(TB) leukemia"
  ASSIGNED CATEGORY: "not met"
- COMPOUND: "C[C@@]1(CO)[C@H](O)CC[C@@]2(C)[C@H]1CC[C@H]1C[C@@H]3C[C@@]12CC[C@@]3(O)COC(=O)CN"
  ASSAYED SYSTEM: "HL-60(TB) leukemia"
  ASSIGNED CATEGORY: "met"
- COMPOUND: "CCN1CCN(CCNc2nccc(-c3c(-c4ccc(F)c(O)c4)nc4occn34)n2)S1(=O)=O"
  ASSAYED SYSTEM: "HL-60(TB) leukemia"
  ASSIGNED CATEGORY: "met"
- COMPOUND: "O=S(=O)(NCCCNc1nccc(-c2c(-c3ccccc3)nc3occn23)n1)c1ccc(Cl)cc1"
  ASSAYED SYSTEM: "HL-60(TB) leukemia"
  ASSIGNED CATEGORY: "not met"
- COMPOUND: "NC(=O)C(Cl)Cl"
  ASSAYED SYSTEM: "HL-60(TB) leukemia"
  ASSIGNED CATEGORY: "not met"
- COMPOUND: "CC(=O)N1N=C(c2ccc(Cl)cc2)CC1c1c(C)nn(-c2ccccc2)c1N(C)Cc1ccccc1 (configuration not stated)"
  ASSAYED SYSTEM: "HL-60(TB) leukemia"
  ASSIGNED CATEGORY: "not met"
- COMPOUND: "CCN(CC)CCNc1ccc(C)c2sc3cc(C)ccc3c(=O)c12"
  ASSAYED SYSTEM: "HL-60(TB) leukemia"
  ASSIGNED CATEGORY: "not met"
- COMPOUND: "O=C(N/N=C/c1ccc(O)cc1O)c1cccc(Nc2ccnc(C(F)(F)F)c2)c1"
  ASSAYED SYSTEM: "HL-60(TB) leukemia"
  ASSIGNED CATEGORY: "met"
- COMPOUND: "CC1=C[C@H]2c3c(c(O)c(O)c4oc5cc(O)ccc5c(=O)c34)[C@H](c3cc(O)c(O)c4oc5cc(O)ccc5c(=O)c34)[C@H]2C(C)(C)C1"
  ASSAYED SYSTEM: "HL-60(TB) leukemia"
  ASSIGNED CATEGORY: "not met"
- COMPOUND: "CC(N)C(Cc1ccc(Cl)cc1)c1ccc(Cl)cc1 (configuration not stated)"
  ASSAYED SYSTEM: "HL-60(TB) leukemia"
  ASSIGNED CATEGORY: "not met"
- COMPOUND: "O=C1ON=[N+](c2ccc(Cc3ccc([N+]4=NOC(=O)C4CN4CCOCC4)cc3)cc2)C1CN1CCOCC1 (configuration not stated)"
  ASSAYED SYSTEM: "HL-60(TB) leukemia"
  ASSIGNED CATEGORY: "not met"
- COMPOUND: "C(#Cc1ccccc1C#Cc1ccccn1)c1ccc(OCCCCCCOc2ccc(C#Cc3ccccc3C#Cc3ccccn3)cc2)cc1"
  ASSAYED SYSTEM: "HL-60(TB) leukemia"
  ASSIGNED CATEGORY: "not met"
- COMPOUND: "Cc1c(C(=O)C(SC(=S)N2CCOCC2)SC(=S)N2CCOCC2)nnn1-c1ccc([N+](=O)[O-])cc1"
  ASSAYED SYSTEM: "HL-60(TB) leukemia"
  ASSIGNED CATEGORY: "not met"
- COMPOUND: "OCCOc1ccc(-c2cc(-c3ccccn3)nc(-c3ccccn3)c2)cc1"
  ASSAYED SYSTEM: "HL-60(TB) leukemia"
  ASSIGNED CATEGORY: "met"
- COMPOUND: "CCCc1cc(=O)oc2c(C(=O)CC(C)C)c(O)c(CC=C(C)C)c(O)c12"
  ASSAYED SYSTEM: "HL-60(TB) leukemia"
  ASSIGNED CATEGORY: "met"
- COMPOUND: "COc1ccc(NS(=O)(=O)c2ccc(-c3cnc(C4CC4)o3)cc2)cc1"
  ASSAYED SYSTEM: "HL-60(TB) leukemia"
  ASSIGNED CATEGORY: "not met"
- COMPOUND: "CC1=CCC(OC(=O)C(C)(C)CC(O)(C(C)O)C(O)C2(C)C=CC(Cc3ccc(C(C)C)cc3)(C(C)C)CC2)(C(C)C)CC1 (configuration not stated)"
  ASSAYED SYSTEM: "HL-60(TB) leukemia"
  ASSIGNED CATEGORY: "not met"
- COMPOUND: "O=[N+]([O-])c1cccc(/C=N\\Nc2ccccc2)c1"
  ASSAYED SYSTEM: "HL-60(TB) leukemia"
  ASSIGNED CATEGORY: "not met"

---

- Test system: HL-60(TB) leukemia
- ASSAY COMMENT: NCI-60 one-dose screen, 48 h (100 = growth as untreated, 0 = no growth, -100 = all killed)
- CONDITION SET: 10 µM unless noted
The panel holds about 83,000 compounds, 20% with a hit somewhere; the sample as a whole holds those more often.

- COMPOUND: "CN1CCC(OC2c3ccccc3CCc3ccccc32)CC1"
  growth (%): 99.1
- COMPOUND: "Nn1c(=O)c(=O)[nH]c2c(cnn2-c2ccccc2)c1=O"
  growth (%): 98.6
- COMPOUND: "COc1ccc2c(c1)nnc1c3cccnc3[nH]c21"
  growth (%): -31.4
- COMPOUND: "CCOC(=O)CC1CSC(Nc2ccccc2)=N1 (stereo unspecified)"
  growth (%): 102
- COMPOUND: "COc1ccc(/C=C/c2cccc[n+]2C)cc1"
  growth (%): 105
- COMPOUND: "O=C(NCc1ccc([N+](=O)[O-])cc1)Nc1ccc(S(=O)(=O)F)cc1"
  growth (%): 85.1

---

- Tested on: HL-60(TB) leukemia
- ASSAY COMMENT: NCI-60 one-dose screen, 48 h (100 = growth as untreated, 0 = no growth, -100 = all killed)
- CONDITION SET: 10 µM unless noted
About 83,000 compounds went through this panel and 20% of them were active in at least one assay; those are over-represented in the sample as a whole.
growth values, listed per item
MEASURED ATTRIBUTE: growth (%)

- MOLECULE: "CCOc1cc(/C=N\\NC(=O)C[N+](C)(C)C)ccc1O"
  OBSERVED MEASUREMENT: 87.7
- MOLECULE: "CCCCCCCCN(CCCCCCCC)CCCCCCCCCN1CCCc2cc(OC)ccc21"
  OBSERVED MEASUREMENT: 89.6
- MOLECULE: "CC(C)C(NC(=O)C1(NC(=O)OCc2ccccc2)CCCC1)C(=O)O (stereo not drawn)"
  OBSERVED MEASUREMENT: 90.8
